experiment: molar heat capacity at constant pressure; conditions: 445 K; 101.33 kPa; Liquid; Small sample (50 mg) DSC
MEASURED QUANTITY: molar heat capacity at constant pressure (J/K/mol)

[[record]]
compound = "C1COCCOCCOCCOCCOCCO1"
measured_quantity = "molar heat capacity at constant pressure"
quantity_unit = "J/K/mol"
value = 595.2

[[record]]
compound = "c1ccc2c(c1)OCCOCCOCCOc1ccccc1OCCOCCOCCO2"
measured_quantity = "molar heat capacity at constant pressure"
quantity_unit = "J/K/mol"
value = 985.6

[[record]]
compound = "c1ccc2c(c1)OCCOCCOCCOCCOc1ccccc1OCCOCCOCCOCCO2"
measured_quantity = "molar heat capacity at constant pressure"
quantity_unit = "J/K/mol"
value = 1199.2

[[record]]
compound = "c1ccc2c(c1)OCCOCCOc1ccccc1OCCOCCO2 [dibenzo[b,k][1,4,7,10,13,16]hexaoxacyclooctadecane]"
measured_quantity = "molar heat capacity at constant pressure"
quantity_unit = "J/K/mol"
value = 755.4


###

Form field: molar heat capacity at constant pressure (one value per entry).
experiment: molar heat capacity at constant pressure; conditions: 465 K; 101.33 kPa; Liquid; Small sample (50 mg) DSC
MEASURED QUANTITY: molar heat capacity at constant pressure (J/K/mol)

[[record]]
molecule = "c1ccc2c(c1)OCCOCCOCCOCCOc1ccccc1OCCOCCOCCOCCO2"
value = 1202

[[record]]
molecule = "c1ccc2c(c1)OCCOCCOc1ccccc1OCCOCCO2 [dibenzo[b,k][1,4,7,10,13,16]hexaoxacyclooctadecane]"
value = 780.2

[[record]]
molecule = "C1COCCOCCOCCOCCOCCO1"
value = 612.5

[[record]]
molecule = "c1ccc2c(c1)OCCOCCOCCOc1ccccc1OCCOCCOCCO2"
value = 1009.9


###

experiment: molar heat capacity at constant pressure; conditions: 450 K; 101.33 kPa; Liquid; Small sample (50 mg) DSC
MEASURED QUANTITY: molar heat capacity at constant pressure (J/K/mol)

[[record]]
molecule = "c1ccc2c(c1)OCCOCCOCCOc1ccccc1OCCOCCOCCO2"
value = 990.7

[[record]]
molecule = "c1ccc2c(c1)OCCOCCOCCOCCOc1ccccc1OCCOCCOCCOCCO2"
value = 1201.2

[[record]]
molecule = "c1ccc2c(c1)OCCOCCOc1ccccc1OCCOCCO2 [dibenzo[b,k][1,4,7,10,13,16]hexaoxacyclooctadecane]"
value = 761

[[record]]
molecule = "C1COCCOCCOCCOCCOCCO1"
value = 599.4


###

assay: molar heat capacity at constant pressure; conditions: 455 K; 101.33 kPa; Liquid; Small sample (50 mg) DSC
MEASURED QUANTITY: molar heat capacity at constant pressure (J/K/mol)

[[record]]
molecule = "c1ccc2c(c1)OCCOCCOCCOc1ccccc1OCCOCCOCCO2 [dibenzo-24-crown-8]"
quantity_unit = "J/K/mol"
value = 996.8

[[record]]
molecule = "C1COCCOCCOCCOCCOCCO1 [1,4,7,10,13,16-hexaoxacyclooctadecane]"
quantity_unit = "J/K/mol"
value = 603

[[record]]
molecule = "c1ccc2c(c1)OCCOCCOCCOCCOc1ccccc1OCCOCCOCCOCCO2 [dibenzo-30-crown-10]"
quantity_unit = "J/K/mol"
value = 1200.9

[[record]]
molecule = "c1ccc2c(c1)OCCOCCOc1ccccc1OCCOCCO2 [dibenzo[b,k][1,4,7,10,13,16]hexaoxacyclooctadecane]"
quantity_unit = "J/K/mol"
value = 768.7

